Kindly supply the reported PBM binding z-score values for the records listed here.
tested on: RARb:RXRa (NR concentration 270 nM, RXRa partner concentration 90 nM); test: PBM binding z-score (relative to random genomic background probes); higher = stronger binding; sequences stand for … in GC…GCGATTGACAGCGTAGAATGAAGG
Answer field: number only, no words.

Query (sequence): ACTCAGAGGACAAAGGTCAGAGCTACGCCAGTGA ; field requested: PBM binding z-score 4.71

Query (sequence): ACTTACGGGTCAACGAGGTTATCGCACGCGTATA ; field requested: PBM binding z-score 4.4

Query (sequence): CTCGAAAGGTCGGTTGACGTGAGTATACGGATAA ; field requested: PBM binding z-score 2.91

Query (sequence): CTAGAAAGGTCGGTTGAGGTGAGTATACGGATAA ; field requested: PBM binding z-score 3.03

Query (sequence): CGTCCAAGGTCATAGGAGGTGAGTGAAGACAGAT ; field requested: PBM binding z-score 5.24

Query (sequence): TCGAGTAGGTTAGTCGGGGCATTCCGCCAACATA ; field requested: PBM binding z-score 0.585

Query (sequence): AGAATGAGGCTAAGATCAGGGAAACAGAATACAT ; field requested: PBM binding z-score 0.158

Query (sequence): GATTGTAGATCAAGGTTAAGAAAGACTAAGCTAA ; field requested: PBM binding z-score 0.406

Query (sequence): TAGCCTAGGTCATGGGGCCAGTATAGTACGCATC ; field requested: PBM binding z-score 3.94

Query (sequence): CAAACTATGTCAAAGGTCAAAGTCGAGCCAACCA ; field requested: PBM binding z-score 5.1

Query (sequence): GCGACTGGGGCATCAGCAGGTAACCATAACTTAA ; field requested: PBM binding z-score 0.352

Query (sequence): TCTCGGAGGATACGAAAGGTCAGAGCTCGACATC ; field requested: PBM binding z-score 3.69
